Biological target: Coagulation factor X (Homo sapiens)
Sequence (P00742 41-179 limits assumed): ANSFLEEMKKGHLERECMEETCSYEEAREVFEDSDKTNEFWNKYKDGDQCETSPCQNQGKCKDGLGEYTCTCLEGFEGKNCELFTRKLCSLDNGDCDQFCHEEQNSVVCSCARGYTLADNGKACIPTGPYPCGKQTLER
Sequence (P00742 235-488 limits assumed): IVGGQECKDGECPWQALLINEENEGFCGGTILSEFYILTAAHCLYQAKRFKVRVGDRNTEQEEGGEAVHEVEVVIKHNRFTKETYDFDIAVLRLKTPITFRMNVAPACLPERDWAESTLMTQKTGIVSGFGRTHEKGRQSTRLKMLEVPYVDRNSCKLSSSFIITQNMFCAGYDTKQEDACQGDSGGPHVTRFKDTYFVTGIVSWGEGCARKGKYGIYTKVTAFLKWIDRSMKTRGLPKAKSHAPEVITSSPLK
Items are presented alongside their recorded pKi.
Quick note: pKi values are minus log10 of concentrations in mol/L.

O=C(NC1CCN(C2CCCC2)CC1)c1cc2ccccc2n1Cc1cc(-c2ccc(Cl)s2)on1 7.15
O=C(NC1CCN(C2CCCCC2)CC1)c1cc2ccccc2n1Cc1cc(-c2ccc(Cl)s2)on1 6.97
O=C(c1cc2ccccc2n1Cc1cc(-c2ccc(Cl)s2)on1)N1CCC(Oc2ccncc2)CC1 5.54

Exercise: Request body: readout pKi, system Coagulation factor X (Homo sapiens), query CC(C)N1CCC(CNC(=O)c2cc3ccccc3n2Cc2cc(-c3ccc(Cl)s3)on2)CC1 . Return the value.
Key: 6.79

Exercise: Consider next the compound CS(=O)(=O)N1CCC(NC(=O)c2cc3ccccc3n2Cc2cc(-c3ccc(Cl)s3)on2)CC1 in the same way.
Key: 6.90

Exercise: Consider next the compound CC(C)N1CC(NC(=O)c2cc3ccccc3n2Cc2cc(-c3ccc(Cl)s3)on2)C1 in the same way.
Key: 6.65

---

Biological target: Prothrombin (Homo sapiens, UniProt P00734)
Experiment: Concentration required to double plasma clotting prothrombin time
Assay type: functional, cell-free
measured.attribute: Concentration
The number alone won't do; follow it with the unit.

O=C(NC1CCN(C2CC2)CC1)c1cc2ccccc2n1Cc1cc(-c2ccc(Cl)s2)on1 19.6 µM
O=C(NC1CN(c2ccncc2)C1)c1cc2ccccc2n1Cc1cc(-c2ccc(Cl)s2)on1 6.2 µM
CC(C)N1CCC(NC(=O)c2cc3ccccc3n2Cc2cc(-c3ccc(Cl)s3)on2)CC1 5.41 µM

Pending compound:
Exercise: Request body: readout Concentration, system Prothrombin (Homo sapiens, UniProt P00734), query CCN1CCC(NC(=O)c2cc3ccccc3n2Cc2cc(-c3ccc(Cl)s3)on2)CC1 . Return the value.
Key: 9.02 µM

---

Items are presented alongside their recorded Concentration.
Target: Prothrombin (Homo sapiens, UniProt P00734)
Assay: Concentration required to double plasma clotting prothrombin time
Assay type: functional, cell-free
The number alone won't do; follow it with the unit.

CCCN1CCC(NC(=O)c2cc3ccccc3n2Cc2cc(-c3ccc(Cl)s3)on2)CC1 15.6 µM
O=C(NC1CCN(c2ccncc2)CC1)c1cc2ccccc2n1Cc1cc(-c2ccc(Cl)s2)on1 6.04 µM
O=C(c1cc2ccccc2n1Cc1cc(-c2ccc(Cl)s2)on1)N1CCC(Nc2ccncc2)CC1 5.78 µM
CC(C)N1CC[C@@H](NC(=O)c2cc3ccccc3n2Cc2cc(-c3ccc(Cl)s3)on2)C1 13.7 µM

Pending compound:
Exercise: Given the compound CN1CCC(NC(=O)c2cc3ccccc3n2Cc2cc(-c3ccc(Cl)s3)on2)CC1 , what is its reported Concentration?
Key: 30.7 µM

---

Items are presented alongside their recorded IC50.
Target: Prothrombin (Homo sapiens, UniProt P00734)
Assay: Inhibitory concentration in dilute prothrombin time assay
Supply the numeric figure in µM, leaving out any unit text.

Guide cases for IC50, answers given:
O=C(NC1CCN(c2ccncc2)CC1)c1cc2ccccc2n1Cc1cc(-c2ccc(Cl)s2)on1 0.23
CCCN1CCC(NC(=O)c2cc3ccccc3n2Cc2cc(-c3ccc(Cl)s3)on2)CC1 1.56
CN1CCC(NC(=O)c2cc3ccccc3n2Cc2cc(-c3ccc(Cl)s3)on2)CC1 1.55

Pending compound:
Exercise: Request body: readout IC50, system Prothrombin (Homo sapiens, UniProt P00734), query O=C(NC1CCN(C2CC2)CC1)c1cc2ccccc2n1Cc1cc(-c2ccc(Cl)s2)on1 . Return the value.
Key: 1.79

---

Target: Prothrombin (Homo sapiens, UniProt P00734)
Test: Inhibitory concentration in dilute prothrombin time assay
Items are presented alongside their recorded pIC50.
Quick note: pIC50 values are minus log10 of concentrations in mol/L.

CC(C)N1CC[C@@H](NC(=O)c2cc3ccccc3n2Cc2cc(-c3ccc(Cl)s3)on2)C1 6.21

Exercise: Given the compound CCN1CCC(NC(=O)c2cc3ccccc3n2Cc2cc(-c3ccc(Cl)s3)on2)CC1 , what is its reported pIC50?
Key: 6.43

Exercise: Consider next the compound CC(C)N1CCC(NC(=O)c2cc3ccccc3n2Cc2cc(-c3ccc(Cl)s3)on2)CC1 in the same way.
Key: 6.38

Exercise: Consider next the compound O=C(c1cc2ccccc2n1Cc1cc(-c2ccc(Cl)s2)on1)N1CCC(Nc2ccncc2)CC1 in the same way.
Key: 6.72

Exercise: Consider next the compound O=C(NC1CN(c2ccncc2)C1)c1cc2ccccc2n1Cc1cc(-c2ccc(Cl)s2)on1 in the same way.
Key: 6.43

---

Ki, Prothrombin (Homo sapiens, UniProt P00734): measured values
Supply the numeric figure in µM, leaving out any unit text.

CC(C)N1CCC(NC(=O)c2cc3ccccc3n2Cc2cc(-c3ccc(Cl)s3)on2)CC1 2.76

Pending compound:
Exercise: Request body: readout Ki, system Prothrombin (Homo sapiens, UniProt P00734), query O=C(c1cc2ccccc2n1Cc1cc(-c2ccc(Cl)s2)on1)N1CCC(Nc2ccncc2)CC1 . Return the value.
Key: 3.16

---

Items are presented alongside their recorded Ki.
Molecular target: Trypsin (Homo sapiens, UniProt P07477+P07478+P35030)
Experiment: Inhibitory activity against coagulation factor trypsin
Format: protein assay

Guide cases for Ki, answers given:
CC(C)N1CC[C@@H](NC(=O)c2cc3ccccc3n2Cc2cc(-c3ccc(Cl)s3)on2)C1 > 100 µM
CC(C)N1CCC(NC(=O)c2cc3ccccc3n2Cc2cc(-c3ccc(Cl)s3)on2)CC1 > 100 µM
O=C(NC1CCN(C2CC2)CC1)c1cc2ccccc2n1Cc1cc(-c2ccc(Cl)s2)on1 > 100 µM

Exercise: Given the compound O=C(c1cc2ccccc2n1Cc1cc(-c2ccc(Cl)s2)on1)N1CCC(Nc2ccncc2)CC1 , what is its reported Ki?
Key: > 100 µM

Exercise: Consider next the compound O=C(NC1CCN(c2ccncc2)CC1)c1cc2ccccc2n1Cc1cc(-c2ccc(Cl)s2)on1 in the same way.
Key: > 100 µM

Exercise: Consider next the compound CN1CCC(NC(=O)c2cc3ccccc3n2Cc2cc(-c3ccc(Cl)s3)on2)CC1 in the same way.
Key: > 100 µM

Exercise: Consider next the compound O=C(NC1CN(c2ccncc2)C1)c1cc2ccccc2n1Cc1cc(-c2ccc(Cl)s2)on1 in the same way.
Key: > 100 µM

Exercise: Consider next the compound CCN1CCC(NC(=O)c2cc3ccccc3n2Cc2cc(-c3ccc(Cl)s3)on2)CC1 in the same way.
Key: > 100 µM
